- system: human PPAR γ (Homo sapiens, UniProt P37231)
- Sequence (P37231 whole entry): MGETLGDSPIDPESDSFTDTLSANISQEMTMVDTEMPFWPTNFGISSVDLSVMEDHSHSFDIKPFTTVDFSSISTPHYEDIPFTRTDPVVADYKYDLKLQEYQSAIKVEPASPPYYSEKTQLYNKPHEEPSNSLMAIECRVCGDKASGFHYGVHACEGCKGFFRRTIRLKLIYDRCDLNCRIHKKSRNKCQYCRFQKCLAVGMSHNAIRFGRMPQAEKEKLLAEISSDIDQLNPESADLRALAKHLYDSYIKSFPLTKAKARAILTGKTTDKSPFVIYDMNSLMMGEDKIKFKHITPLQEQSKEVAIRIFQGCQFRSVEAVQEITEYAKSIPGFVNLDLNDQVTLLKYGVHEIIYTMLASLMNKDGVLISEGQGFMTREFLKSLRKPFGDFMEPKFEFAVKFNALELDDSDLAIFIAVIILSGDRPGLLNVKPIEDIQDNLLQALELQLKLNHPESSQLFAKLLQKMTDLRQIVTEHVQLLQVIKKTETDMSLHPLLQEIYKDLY
- procedure.text: Human PPARγ reporter assay (Indigo Biosciences kit)
- Type: cell-based
- conditions.used: antagonist mode, agonist at ~EC80; read-out: PPARγ
result.type: IC50 (µM)

Some compounds with known IC50 results, for comparison:
CCOc1ccc(-c2cccc(CCCc3nn(-c4ccc(C(F)(F)F)cc4)c(=O)n3C(C)C)c2)cc1CC(=O)O [Example 31]; 56.9
CCOc1ccc(-c2ccc(CCCc3nn(-c4ccc(C(F)(F)F)cc4Cl)c(=O)n3-c3ccccc3F)cc2)cc1CC(=O)O [Example 33]; 32.3
CCOc1ccc(-c2ccc(CCCc3nn(-c4ccc(C(F)(F)F)cc4)c(=O)n3-c3ccccc3F)cc2)cc1C(=O)O [Example 32]; 63.2

[1] CCCOc1ccc(-c2ccc(CCCc3nn(-c4ccc(C(F)(F)F)cc4)c(=O)n3-c3ccccc3F)cc2)cc1CC(=O)O [Example 39]
[2] CCOc1ccc(-c2ccc(CCCc3nn(-c4ccc(C(F)(F)F)cc4)c(=O)n3CC(C)C)cc2)cc1CC(=O)O [Example 20]
Qu. Hi! Which is lower in terms of IC50, the first one 1 or the second one 2 ? Answer format: the label of the selected item.
Ans. 1
(1: 20 µM, 2: 32.9 µM)

====

- system: human PPAR γ (Homo sapiens, UniProt P37231)
- procedure.text: Human PPARγ reporter assay (Indigo Biosciences kit)
- Assay type: cell-based
- conditions.used: antagonist mode, agonist at ~EC80; read-out: PPARγ
result.type: IC50 (µM)

Some molecules with known IC50 results, for comparison:
CCOc1ccc(-c2ccc(CCCc3nn(-c4ccc(C(F)(F)F)cc4)c(=O)n3-c3ccccc3F)cc2C)cc1CC(=O)O [Example 9]; 39.8
Cc1cc(CCCc2nn(-c3ccc(C(F)(F)F)cc3)c(=O)n2-c2ccccc2F)ccc1-c1ccc(C(F)(F)F)c(C(=O)O)c1 [Example 10]; 28.1
CCOc1ccc(-c2ccc(CCCc3nn(-c4ccc(C(F)(F)F)cc4)c(=O)n3-c3cc(F)ccc3F)cc2)cc1CC(=O)O [Example 22]; 44.5
CCOc1ccc(-c2ccc(CCCc3nn(-c4ccc(C(C)C)cc4)c(=O)n3-c3ccccc3Cl)cc2)cc1CC(=O)O [Example 27]; 28.9

[P] CCOc1ccc(-c2ccc(CCCc3nn(-c4ccccc4F)c(=O)n3-c3ccc(C(F)(F)F)cc3)cc2)cc1CC(=O)O [Example 36]
[Q] CCOc1ccc(-c2ccc(CCCc3nn(-c4ccc(C(C)(C)C)cc4)c(=O)n3-c3c(Cl)cccc3Cl)cc2)cc1CC(=O)O [Example 28]
[R] CCCn1c(CCCc2ccc(-c3ccc(OCC)c(CC(=O)O)c3)cc2)nn(-c2ccc(C(F)(F)F)cc2)c1=O [Example 3]
Qu. Sequence the entries by IC50, beginning with the highest number. Order the labels as requested and give them as your answer.
Ans. P, R, Q
(P: 79 µM, R: 50 µM, Q: 32.9 µM)

====

- system: human PPAR γ (Homo sapiens, UniProt P37231)
- procedure.text: Human PPARγ reporter assay (Indigo Biosciences kit)
- Assay type: cell-based
- conditions.used: antagonist mode, agonist at ~EC80; read-out: PPARγ
result.type: IC50 (µM)

CCOc1ccc(-c2ccc(CCCc3nn(-c4ccc(C(F)(F)F)cc4)c(=O)n3-c3ccccc3F)cc2C)cc1C(=O)O; 24.8
CCOc1ccc(-c2ccc(CCCc3nn(-c4ccc(C(F)(F)F)cc4)c(=O)n3-c3ccccc3Cl)cc2)cc1CC(=O)O; 22.3
CCOc1ccc(-c2ccc(CCCc3nn(-c4ccc(C(F)(F)F)cc4)c(=O)n3C3CCCCC3C)cc2)cc1CC(=O)O (stereo not shown); 19.4
CCOc1ccc(-c2ccc(CCCc3nn(-c4ccc(C(F)(F)F)cc4)c(=O)n3-c3ccccc3CC)cc2)cc1CC(=O)O; 29

[A] CCOc1ccc(-c2cccc(CCCc3nn(-c4ccc(C(F)(F)F)cc4)c(=O)n3-c3ccccc3F)c2)cc1CC(=O)O
[B] CCOc1ccc(-c2ccc(CCCc3nn(-c4ccc(C(F)(F)F)cc4)c(=O)n3C3CCC(C)CC3)cc2)cc1CC(=O)O (stereo not shown)
Qu. Hi! Which is lower in terms of IC50, the first one A or the second one B ? Answer format: the label of the selected item.
Ans. A
(A: 27.6 µM, B: 40 µM)

====

- system: Human PPARα (Homo sapiens, UniProt Q07869)
- Sequence (Q07869 1-468): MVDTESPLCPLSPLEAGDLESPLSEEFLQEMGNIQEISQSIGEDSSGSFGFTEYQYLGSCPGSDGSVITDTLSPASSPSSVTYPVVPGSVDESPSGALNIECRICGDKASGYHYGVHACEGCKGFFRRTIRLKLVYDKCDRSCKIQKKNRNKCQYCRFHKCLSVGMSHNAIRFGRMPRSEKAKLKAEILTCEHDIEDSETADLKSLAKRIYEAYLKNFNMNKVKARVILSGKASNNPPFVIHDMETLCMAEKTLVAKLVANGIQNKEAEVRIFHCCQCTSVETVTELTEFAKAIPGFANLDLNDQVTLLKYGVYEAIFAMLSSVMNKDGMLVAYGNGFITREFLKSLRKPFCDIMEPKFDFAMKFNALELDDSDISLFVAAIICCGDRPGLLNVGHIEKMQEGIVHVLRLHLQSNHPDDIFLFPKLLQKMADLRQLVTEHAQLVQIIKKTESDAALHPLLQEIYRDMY
- procedure.text: Human PPARα Reporter Assay (luciferase, Indigo Biosciences)
- conditions.used: antagonist mode, reporter cells, overnight incubation
result.type: IC50 (nM)

CCOc1ccc(-c2ccc(CCCc3nn(-c4ccc(C(F)(F)F)cc4)c(=O)n3C3CCC(C)CC3)cc2)cc1CC(=O)O (centres unmarked); 109
COc1ccc(-c2ccc(CCCc3nn(-c4ccc(C(F)(F)F)cc4)c(=O)n3Cc3ccccc3F)cc2)cc1CC(=O)O; 38800

[P] CCOc1ccc(-c2ccc(CCCc3nn(-c4ccc(C(F)(F)F)cc4)c(=O)n3-c3ccccc3Cl)cc2)cc1CC(=O)O
[Q] CCCn1c(CCCc2ccc(-c3cccc(NS(=O)(=O)c4ccccc4)n3)cc2)nn(-c2ccc(C(F)(F)F)cc2)c1=O
Qu. Among P and Q , which shows a numerically higher IC50 result? Answer format: the label of the selected item.
Ans. Q
(Q: 182 nM, P: 31 nM)

====

- system: human PPAR β/δ (Homo sapiens, UniProt Q03181)
- Sequence (Q03181 whole entry): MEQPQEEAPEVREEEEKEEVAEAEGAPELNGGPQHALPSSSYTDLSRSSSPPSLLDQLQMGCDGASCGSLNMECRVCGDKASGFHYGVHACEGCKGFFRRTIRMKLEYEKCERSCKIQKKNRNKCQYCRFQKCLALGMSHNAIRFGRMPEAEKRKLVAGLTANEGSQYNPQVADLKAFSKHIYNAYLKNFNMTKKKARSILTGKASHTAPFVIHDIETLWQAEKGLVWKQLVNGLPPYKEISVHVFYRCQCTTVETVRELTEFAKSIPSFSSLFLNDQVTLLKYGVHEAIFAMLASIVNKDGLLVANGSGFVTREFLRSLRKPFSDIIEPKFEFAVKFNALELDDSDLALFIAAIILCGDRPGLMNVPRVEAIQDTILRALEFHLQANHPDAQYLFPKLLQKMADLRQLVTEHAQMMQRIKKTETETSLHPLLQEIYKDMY
- procedure.text: Human PPAR β/δ reporter assay (luciferase, Indigo Biosciences kit)
- conditions.used: antagonist mode, agonist at ~EC80; read-out: PPARδ Luciferase IC50
result.type: IC50 (µM)

Some molecules with known IC50 results, for comparison:
COc1ccc(-c2ccc(CCCc3nn(-c4ccc(C(F)(F)F)cc4)c(=O)n3Cc3ccccc3F)cc2)cc1CC(=O)O [Example 15]; 8.36
CCOc1ccc(-c2ccc(CCCc3nn(-c4ccc(C(F)(F)F)cc4)c(=O)n3C3CCCCC3C)cc2)cc1CC(=O)O (centres unmarked) [Example 7]; 0.22
CCCn1c(CCCc2ccc(-c3cccc(NS(=O)(=O)c4ccccc4)n3)cc2)nn(-c2ccc(C(F)(F)F)cc2)c1=O [Example 13]; 1.16
CCOc1ccc(-c2cccc(CCCc3nn(-c4ccc(C(F)(F)F)cc4)c(=O)n3-c3ccccc3F)c2)cc1CC(=O)O [Example 30]; 0.096
CCOc1ccc(-c2ccc(CCCc3nn(-c4ccc(C(F)(F)F)cc4)c(=O)n3-c3ccccc3F)cc2C)cc1C(=O)O [Example 11]; 0.124
CCOc1ccc(-c2ccc(CCCc3nn(-c4ccc(C(F)(F)F)cc4Cl)c(=O)n3-c3ccccc3F)cc2)cc1CC(=O)O [Example 33]; 0.746
COc1ccc(-c2ccc(CCCc3nn(-c4ccc(C(F)(F)F)cc4)c(=O)n3C3CC3)cc2)cc1CC(=O)O [Example 14]; 0.697
CCOc1ccc(-c2ccc(CCCc3nn(-c4ccc(C(F)(F)F)cc4)c(=O)n3C3CCCC(C)C3)cc2)cc1CC(=O)O (centres unmarked) [Example 6]; 0.154

[A] CCOc1ccc(-c2ccc(CCCc3nn(-c4ccc(C(C)C)cc4)c(=O)n3-c3ccccc3Cl)cc2)cc1CC(=O)O [Example 27]
[B] CCCOc1ccc(-c2ccc(CCCc3nn(-c4ccc(C(F)(F)F)cc4)c(=O)n3-c3ccccc3F)cc2)cc1CC(=O)O [Example 39]
[C] CCCOc1ccc(-c2ccc(CCCc3nn(-c4ccc(C(F)(F)F)cc4)c(=O)n3C3CC3)cc2)cc1CC(=O)O [Example 17]
[D] CCOc1ccc(-c2ccc(CCCc3nn(-c4ccc(C(F)(F)F)cc4)c(=O)n3-c3cccc(F)c3)cc2)cc1CC(=O)O [Example 21]
Qu. Sequence the entries by IC50, beginning with the highest number. Order the labels as requested and give them as your answer.
Ans. C, A, D, B

[P] Cc1cc(CCCc2nn(-c3ccc(C(F)(F)F)cc3)c(=O)n2-c2ccccc2F)ccc1-c1ccc(C(F)(F)F)c(C(=O)O)c1 [Example 10]
[Q] CCOc1ccc(-c2ccc(CCCc3nn(-c4ccc(C(F)(F)F)cc4)c(=O)n3-c3ccccc3Cl)cc2)cc1CC(=O)O [Example 19]
Qu. Hi! Which is lower in terms of IC50, the first one P or the second one Q ? Answer format: the label of the selected item.
Ans. Q
(Q: 0.032 µM, P: 0.198 µM)
